Sourced from ChEMBL document CHEMBL1142964

Assay: Biodistribution in muscle of iv dosed CWR22 tumor bearing mouse after 60 min
Type: ADME, organism-based, Muscle tissue
Settings: human, read-out: Drug uptake
MEASUREMENT_NAME: tissue uptake at 1 h (%ID/g)

>>> observed_value("CC(O)(CS(=O)(=O)c1ccc([76Br])cc1)C(=O)Nc1ccc(C#N)c(C(F)(F)F)c1 (stereo unspecified)")
2.9

----------
Target: Androgen receptor (Rattus norvegicus, UniProt P15207)
Sequence (P15207 whole entry S389L): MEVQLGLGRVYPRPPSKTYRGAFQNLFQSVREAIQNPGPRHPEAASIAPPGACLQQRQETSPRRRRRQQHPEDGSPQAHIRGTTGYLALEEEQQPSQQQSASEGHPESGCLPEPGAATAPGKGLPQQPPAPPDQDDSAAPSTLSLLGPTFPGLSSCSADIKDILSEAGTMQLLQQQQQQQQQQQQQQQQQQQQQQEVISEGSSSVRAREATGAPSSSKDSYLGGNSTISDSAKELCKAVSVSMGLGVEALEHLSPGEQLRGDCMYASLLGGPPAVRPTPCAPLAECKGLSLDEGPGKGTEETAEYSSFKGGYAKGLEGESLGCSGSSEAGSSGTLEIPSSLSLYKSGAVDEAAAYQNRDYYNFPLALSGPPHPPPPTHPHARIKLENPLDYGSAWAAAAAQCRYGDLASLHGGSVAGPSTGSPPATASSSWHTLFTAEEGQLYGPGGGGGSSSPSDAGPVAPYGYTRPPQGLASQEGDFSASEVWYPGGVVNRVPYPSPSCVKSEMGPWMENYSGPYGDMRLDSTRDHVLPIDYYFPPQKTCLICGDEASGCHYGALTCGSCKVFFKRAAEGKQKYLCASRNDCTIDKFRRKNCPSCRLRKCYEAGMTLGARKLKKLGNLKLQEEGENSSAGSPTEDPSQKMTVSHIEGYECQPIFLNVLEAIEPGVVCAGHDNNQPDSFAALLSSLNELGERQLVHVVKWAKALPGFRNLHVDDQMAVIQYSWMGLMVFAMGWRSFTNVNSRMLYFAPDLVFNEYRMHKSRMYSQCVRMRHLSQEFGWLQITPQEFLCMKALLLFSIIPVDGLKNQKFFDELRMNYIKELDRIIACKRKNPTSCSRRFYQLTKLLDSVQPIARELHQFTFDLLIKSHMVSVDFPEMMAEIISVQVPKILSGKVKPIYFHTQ
pKd: −log10 of the molar value.
MEASUREMENT_NAME: pKd

>>> observed_value("CC(O)(CS(=O)(=O)c1ccc(Br)cc1)C(=O)Nc1ccc(C#N)c(C(F)(F)F)c1 (stereo unspecified)")
6.96
